measurementTarget: PI3Kα (p110α/p85α) (Homo sapiens, UniProt P42336)
Sequence (P42336 whole entry): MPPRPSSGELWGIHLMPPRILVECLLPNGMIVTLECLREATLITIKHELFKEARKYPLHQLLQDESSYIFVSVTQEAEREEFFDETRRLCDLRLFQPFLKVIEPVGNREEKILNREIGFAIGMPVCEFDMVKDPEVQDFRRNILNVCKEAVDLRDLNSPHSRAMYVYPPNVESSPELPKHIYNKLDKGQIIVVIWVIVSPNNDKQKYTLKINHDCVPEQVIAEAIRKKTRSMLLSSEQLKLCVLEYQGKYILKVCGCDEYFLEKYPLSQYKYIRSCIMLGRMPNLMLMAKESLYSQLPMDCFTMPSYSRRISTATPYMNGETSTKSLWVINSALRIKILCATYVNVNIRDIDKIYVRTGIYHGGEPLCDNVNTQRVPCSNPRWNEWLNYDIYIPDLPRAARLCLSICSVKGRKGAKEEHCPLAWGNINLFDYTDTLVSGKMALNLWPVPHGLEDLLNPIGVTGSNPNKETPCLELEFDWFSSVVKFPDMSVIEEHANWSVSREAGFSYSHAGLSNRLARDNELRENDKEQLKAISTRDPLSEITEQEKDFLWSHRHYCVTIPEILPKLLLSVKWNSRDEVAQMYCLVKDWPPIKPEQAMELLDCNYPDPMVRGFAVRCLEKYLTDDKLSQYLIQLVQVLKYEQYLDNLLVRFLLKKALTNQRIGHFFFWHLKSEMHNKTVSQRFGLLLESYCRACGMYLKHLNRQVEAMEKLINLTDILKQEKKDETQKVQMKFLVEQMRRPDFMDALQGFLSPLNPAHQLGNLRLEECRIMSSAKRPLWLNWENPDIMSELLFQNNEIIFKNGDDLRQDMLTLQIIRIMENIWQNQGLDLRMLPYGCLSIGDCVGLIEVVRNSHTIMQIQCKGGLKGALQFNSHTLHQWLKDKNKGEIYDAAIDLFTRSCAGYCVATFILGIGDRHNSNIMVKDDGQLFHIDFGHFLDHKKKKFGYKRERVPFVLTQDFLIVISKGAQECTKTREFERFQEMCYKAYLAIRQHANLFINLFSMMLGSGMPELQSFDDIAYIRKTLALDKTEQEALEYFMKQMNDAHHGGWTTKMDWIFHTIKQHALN
Sequence (P27986 whole entry partner): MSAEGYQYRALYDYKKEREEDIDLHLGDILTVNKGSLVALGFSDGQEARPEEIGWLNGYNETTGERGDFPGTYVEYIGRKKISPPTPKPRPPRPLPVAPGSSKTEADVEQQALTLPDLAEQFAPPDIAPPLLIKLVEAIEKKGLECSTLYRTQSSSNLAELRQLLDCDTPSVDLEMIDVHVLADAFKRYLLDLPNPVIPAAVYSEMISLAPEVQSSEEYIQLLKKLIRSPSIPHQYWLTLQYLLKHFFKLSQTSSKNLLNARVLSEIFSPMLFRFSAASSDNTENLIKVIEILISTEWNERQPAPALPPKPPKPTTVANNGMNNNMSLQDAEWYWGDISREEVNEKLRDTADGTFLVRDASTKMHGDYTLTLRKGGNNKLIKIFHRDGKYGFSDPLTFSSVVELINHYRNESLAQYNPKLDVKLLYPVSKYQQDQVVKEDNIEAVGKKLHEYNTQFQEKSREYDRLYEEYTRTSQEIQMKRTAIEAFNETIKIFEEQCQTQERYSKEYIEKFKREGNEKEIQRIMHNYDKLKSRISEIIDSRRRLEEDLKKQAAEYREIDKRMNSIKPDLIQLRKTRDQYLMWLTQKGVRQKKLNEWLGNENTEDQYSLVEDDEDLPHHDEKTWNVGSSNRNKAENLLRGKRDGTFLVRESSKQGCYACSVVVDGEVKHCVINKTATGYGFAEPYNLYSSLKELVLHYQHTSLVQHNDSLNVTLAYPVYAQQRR
procedureSummary: HTRF assay, potency against active PI3Kα
conditionParameters: HTRF; [ATP]=50 μM, [di-C8-PIP2]=10 μM; 30 min pre-incubation; read-out: PI3Kα Inhibition
pIC50: −log10 of the molar value.
valueKind: pIC50

Here's what some known entries look like.
C=CC(=O)N1CCN(Cc2cc3nc(-c4cccc5[nH]ncc45)nc(N4CCOCC4)c3s2)CC1 7.00 to 8.00
C=C(CC)C(=O)CCC(=O)N1CCN(Cc2cc3nc(-c4cccc5[nH]ncc45)nc(N4CCOCC4)c3s2)CC1 7.00 to 8.00
C=CC(=O)Nc1ccc(C#Cc2cc(-c3cnc(N)nc3)nc(N3CCOCC3)c2)cc1 7.00 to 8.00
C=CC(=O)NCC(=O)N1CCCc2cccc(-c3cc4nc(-c5cccc(O)c5)nc(N5CCOCC5)c4s3)c21 6.00 to 7.00
C/C=C/C(=O)CCC(=O)N1CCN(c2ccc(-c3ccnc4ccc(/C=C5\SC(=O)NC5=O)cc34)cc2)CC1 7.00 to 8.00
C=CC(=O)Nc1cccc(C(=O)N2CC=C(c3cc4nc(-c5cnc(N)nc5)nc(N5CCOCC5)c4s3)CC2)c1 > 8.00

Entry under test: CC(C)=CC(=O)C(=O)N1CCC(C#Cc2cc(-c3cnc(N)nc3)nc(N3CCOCC3)c2)CC1 . Its pIC50 was 6.00 to 7.00

Short answer for CC(C)=CC(=O)CCCCC#Cc1cc(-c2cnc(N)cc2C(F)(F)F)nc(N2CCOCC2)c1 : pIC50 was < 6.00

Values from patent US20110230476A1
